Measured values drawn from PubChem BioAssay (NCI) for this set.

Readings of growth for the listed compounds
System: A498 renal
Test: NCI-60 one-dose screen, 48 h (100 = growth as untreated, 0 = no growth, -100 = all killed)
Conditions: 10 µM unless noted
About 83,000 compounds went through this panel and 20% of them were active in at least one assay; those are over-represented in the sample as a whole.
metricName: growth (%)

compound=CC(C)N(C(=S)SSC(=S)N(C(C)C)C(C)C)C(C)C metricname=growth readoutnumber=97.8
compound=O=C(O)c1cc2cc(OCc3ccccc3)ccc2[nH]1 metricname=growth readoutnumber=98
compound=ClCCn1cnc2c(SCc3ccccc3Cl)ncnc21 metricname=growth readoutnumber=39
compound="OC(CCCCCCCCC(O)CN1CCc2ccccc2C1)CN1CCc2ccccc2C1 (stereo unspecified)" metricname=growth readoutnumber=107
compound=COc1ccc(Oc2nc(Nc3ccc(N4CCOCC4)cc3)ncc2NC(=O)Nc2cccc(OC)c2)cc1 metricname=growth readoutnumber=66.3
compound="COc1cc(C2CC(=O)Nc3c2cnn3C)cc(OC)c1OC (stereo unspecified)" metricname=growth readoutnumber=113
compound="O=C1CCCN1C1CCN2CCCc3cccc1c32 (stereo unspecified)" metricname=growth readoutnumber=99.2
compound="CCN1C(=O)N(CC)C2C1NN=c1s/c(=C\\c3ccco3)c(=O)n12 (stereo unspecified)" metricname=growth readoutnumber=21.5
compound=COc1ccccc1CNCCCN1C(=O)c2ccc3c4c(ccc(c24)C1=O)C(=O)N(CCCOCCCCOCCCN)C3=O metricname=growth readoutnumber=-16.1
compound=O=C(c1ccccc1)C(CCc1ccccn1)CCc1ccccn1 metricname=growth readoutnumber=100
compound=CC(C)c1ccc(-c2cnc3nonc3n2)cc1 metricname=growth readoutnumber=61.8
compound="CC(=O)OC[C@H]1O[C@@H](n2c(=O)cc(N)[nH]c2=O)C(OC(C)=O)[C@@H]1OC(C)=O (stereo partly specified)" metricname=growth readoutnumber=98.1
compound=Nc1nc(NC2CC2)cc(-c2cccc(Cl)c2Cl)n1 metricname=growth readoutnumber=47.7
compound=Cn1cnc([N+](=O)[O-])c1S(=O)(=O)Oc1cccc2ccccc12 metricname=growth readoutnumber=97.6
compound=O=C(Nc1ccncc1)C(=O)c1cn(S(=O)(=O)c2cccc(Cl)c2F)c2ccccc12 metricname=growth readoutnumber=72
compound=ClCc1c(Cl)c(Cl)c(Cl)c(CCl)c1Cl metricname=growth readoutnumber=89
compound=COc1ccc(NC(=O)Cn2c(=O)sc3c(-c4ccc(Cl)cc4)cc(-c4ccc(Cl)cc4)nc32)cc1 metricname=growth readoutnumber=129
compound=CN(C)N1C(=O)c2c(Cl)c(Cl)c(Cl)c(Cl)c2C1=O metricname=growth readoutnumber=106
compound=COc1cccc(-c2nc3sccn3c2-c2ccnc(NCCN3CCCN(C)S3(=O)=O)n2)c1 metricname=growth readoutnumber=98.1
compound="CCOC(=O)C1C(=O)C=C(c2ccccc2)CC1c1sc(N(C)Cc2ccccc2)nc1Cl (stereo unspecified)" metricname=growth readoutnumber=107
compound=O=C(Nc1ccc(Cl)cc1)c1cc(-c2ccc(Cl)cc2)c2sc(=O)[nH]c2n1 metricname=growth readoutnumber=-43.8

----------
System: CAKI-1 renal
Experiment: NCI-60 one-dose screen, 48 h (100 = growth as untreated, 0 = no growth, -100 = all killed)
Conditions: 10 µM unless noted
Compounds without any hit were thinned out: in the full panel of roughly 83,000, 20% have a hit.
metricName: growth (%)

compound=O=C(N/N=C\c1cc(Br)ccc1O)c1ccncc1 metricname=growth readoutnumber=24.7
compound=C#CCO[C@H]1CC[C@H](OCC#C)[C@@H]2[C@H]1[C@H]1C[C@@H]3[C@@]4(C)CCC[C@@](C)(C(=O)OC)[C@@H]4CC[C@@]23C=C1C(C)C metricname=growth readoutnumber=59.3
compound="COc1ccc(C(=O)C(CN(C)C)c2ccc(OC)cc2)cc1 (centres undefined)" metricname=growth readoutnumber=73.9
compound=O=S1(=O)NCCN1CCNc1nccc(-c2c(-c3cccc(O)c3)nc3sccn23)n1 metricname=growth readoutnumber=80.8
compound=Cc1c2c(cc3c1[nH]c1ccccc13)C=NCC2 metricname=growth readoutnumber=92.9
compound=O=C(/C=C/c1ccccc1Br)c1cccc(OCCCCOc2cccc(C(=O)/C=C/c3ccccc3Br)c2)c1 metricname=growth readoutnumber=91.9
compound=CCOC(=O)Nc1ccc2nc(N3CCCCCC3)sc2c1 metricname=growth readoutnumber=27.2
compound=O=c1c2cc(Cl)ccc2oc2ccc(OCCCCCN3CCCCCC3)cc12 metricname=growth readoutnumber=94.6
compound="CC1(C)OC2OC3C(CN)OC(c4ccccc4)OC3C2O1 (centres undefined)" metricname=growth readoutnumber=92.5
compound=CCCCCCCC/C=C/CCCCCCCC1=NC(C)(C)CN1c1ccccc1 metricname=growth readoutnumber=90.1
compound=CCN(CC)c1ccc(/C=C2/NC(=O)NC2=O)cc1 metricname=growth readoutnumber=39
compound=N=c1nc(N2CCCCC2)cc(N)n1O metricname=growth readoutnumber=101
compound=O=C(N/N=C/c1ccc([N+](=O)[O-])cc1)c1ccccc1Nc1ccnc(C(F)(F)F)c1 metricname=growth readoutnumber=76.4
compound=CCOCCNc1ccc(S(=O)(=O)c2ccc(N)cc2)cc1N metricname=growth readoutnumber=86.7
compound=COc1ccccc1-[n+]1cc(-c2ccc(-c3ccccc3)cc2)n2c1CCCCC2 metricname=growth readoutnumber=72.6
compound=COc1ccc(-c2cc(C(=O)Nc3ccc(Br)cc3)nc3[nH]c(=O)sc23)cc1 metricname=growth readoutnumber=34.6
compound=COc1cc(Cl)cc(-c2nn(C(=O)NCCN3CCOCC3)cc2-c2ccncc2)c1 metricname=growth readoutnumber=73.3
compound=COc1cc([N+](=O)[O-])cc(OC)c1OC metricname=growth readoutnumber=89.5
compound=C=C1C(=O)O[C@H]2[C@H]1CC/C(COC(=O)NCc1cccc(OC)c1)=C\CC[C@@]1(C)O[C@@H]21 metricname=growth readoutnumber=10.4
compound=COc1cc2ncnc(Nc3ccc(S(=O)(=O)Nc4cc(C)on4)cc3)c2cc1OCCCN1CCN(c2ccc([N+](=O)[O-])cc2)CC1 metricname=growth readoutnumber=92.8
compound=CNCCCn1c2c(c3ccc(Cl)cc3c1=O)C(=O)c1cc(OC)cnc1-2 metricname=growth readoutnumber=35.3
compound=CCN1CCN(Cc2ccc(NC(=O)Nc3ccc(-n4ccc5c(NC(=O)c6ccccc6)nccc54)cc3)cc2C(F)(F)F)CC1 metricname=growth readoutnumber=47.3
compound=CCOC(=O)c1cc(C(=O)OCC)c(C)nc1C metricname=growth readoutnumber=103
compound=O=C(N/N=C/c1ccccc1O)c1ccncc1 metricname=growth readoutnumber=41.3
